Ref: patent US20110143939A1

quantityMeasured: melting point (°C)

| compound | resultNumber |
| --- | --- |
| O=c1c(-c2cccs2)nc2ccccc2n1CC1CCC1 | 103 |
| Cn1c(=O)c(-c2ccccc2)nc2cc3c(cc21)OC(F)(F)O3 | 165 |
| Nn1c(=O)c(-c2cccs2)nc2ccccc21 | 164 |
| Cn1c(=S)c(-c2cccs2)nc2ccccc21 | 113 |
| O=c1c(-c2cccs2)nc2ccccc2n1CC1CCCO1 (centres unmarked) | 123 |

* * *

Entries and their melting point

Example entries begin here.
| structureString | quantityMeasured | result |
| --- | --- | --- |
| CS(=O)(=O)NCCn1c(=O)c(-c2cccs2)nc2ccccc21 | melting point | 236 to 237 °C |
| O=c1[nH]c2cc3c(cc2nc1-c1ccccc1)OC(F)(F)O3 | melting point | 291 to 292 °C |

Shifting focus to the compound that follows.
According to the records, this compound `Cl.NCCn1c(=O)c(-c2cccs2)nc2ccccc21` displays melting point of > 250 °C
